pIC50: −log10 of the molar value.
pIC50 data for UniProt:P24547 follow.
Sequence (P24547 whole entry): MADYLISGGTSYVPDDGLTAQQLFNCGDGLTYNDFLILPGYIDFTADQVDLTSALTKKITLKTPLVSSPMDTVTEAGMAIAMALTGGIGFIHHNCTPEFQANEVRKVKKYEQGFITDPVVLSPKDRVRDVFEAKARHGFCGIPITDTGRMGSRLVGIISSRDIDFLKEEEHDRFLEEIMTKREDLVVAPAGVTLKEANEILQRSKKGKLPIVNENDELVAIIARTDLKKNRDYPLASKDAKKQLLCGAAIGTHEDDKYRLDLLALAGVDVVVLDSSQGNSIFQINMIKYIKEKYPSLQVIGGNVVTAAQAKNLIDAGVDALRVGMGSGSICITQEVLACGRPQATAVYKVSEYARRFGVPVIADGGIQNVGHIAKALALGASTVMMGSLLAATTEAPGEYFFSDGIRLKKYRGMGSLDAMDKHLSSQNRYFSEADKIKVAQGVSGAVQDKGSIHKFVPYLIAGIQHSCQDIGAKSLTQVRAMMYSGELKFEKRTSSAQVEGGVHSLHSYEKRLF

CCCC[C@@H](O)/C=C(C)/C=C/C=C\C(=O)N1CCCC1=O
< 3.70
CC(/C=C/CCC(=O)N1CCCC1=O)=C\C1CCCCO1 (centres undefined)
< 3.70
CCCCC(=O)/C=C(C)/C=C/CCC(=O)N1CCCC1=O
< 3.70

query: # query: pIC50 | item CCCC[C@@H](O)/C=C(C)/C=C/C=C/C(=O)N1CCCC1=O [PECILOCIN] | system: UniProt:P24547
result: < 3.70

---

Parameter pIC50: see the listing below.
# assayed.system: DNA polymerase beta (Rattus norvegicus)
# assay: Inhibition of recombinant rat DNA polymerase beta expressed in Escherichia coli JMpbeta5 assessed as inhibition of incorporation of dTTP into poly(dA)/oligo(dT)18 after 60 mins
pIC50: −log10 of the molar value.

See these solved cases before continuing.
CCCCC(=O)/C=C(C)/C=C/CCC(=O)N1CCCC1=O
< 3.70
CCCC[C@@H](O)/C=C(C)/C=C/C=C\C(=O)N1CCCC1=O
4.45

query: Look up pIC50: CC(/C=C/CCC(=O)N1CCCC1=O)=C\C1CCCCO1 (centres undefined)
result: < 3.70

query: Look up pIC50: "CCCC[C@@H](O)/C=C(C)/C=C/C=C/C(=O)N1CCCC1=O"
result: < 3.70

---

# assayed.system: DNA polymerase beta (Rattus norvegicus, UniProt P06766)
# assay: Competitive inhibition of recombinant rat DNA polymerase beta using poly(dA)/oligo(dT)18 as substrate by Lineweaver-Burk plot analysis
parameter.measured: Ki (µM)
Write down the numeric answer in µM and omit the unit.

query: Look up Ki: "CCCC[C@@H](O)/C=C(C)/C=C/C=C\C(=O)N1CCCC1=O"
result: 5.5

---

# assayed.system: Human immunodeficiency virus type 1 reverse transcriptase (Human immunodeficiency virus 1, UniProt Q72547)
pIC50: −log10 of the molar value.
Parameter pIC50: see the listing below.

See these solved cases before continuing.
CCCCC(=O)/C=C(C)/C=C/CCC(=O)N1CCCC1=O
< 3.70
CCCC[C@@H](O)/C=C(C)/C=C/C=C\C(=O)N1CCCC1=O
< 3.70
CCCC[C@@H](O)/C=C(C)/C=C/C=C/C(=O)N1CCCC1=O
< 3.70

--- query ---
query: Look up pIC50: CC(/C=C/CCC(=O)N1CCCC1=O)=C\C1CCCCO1 (centres undefined)
result: < 3.70

---

# assayed.system: DNA polymerase beta (Rattus norvegicus)
# assay: Noncompetitive inhibition of recombinant rat DNA polymerase beta using dTTP as substrate by Lineweaver-Burk plot analysis
parameter.measured: Ki (µM)
Write down the numeric answer in µM and omit the unit.

query: Look up Ki: "CCCC[C@@H](O)/C=C(C)/C=C/C=C\C(=O)N1CCCC1=O"
result: 11.6
